Biological target: MAP/microtubule affinity-regulating kinase 3 (Homo sapiens, UniProt P27448)
Sequence (P27448 whole entry, the tested form may be a part): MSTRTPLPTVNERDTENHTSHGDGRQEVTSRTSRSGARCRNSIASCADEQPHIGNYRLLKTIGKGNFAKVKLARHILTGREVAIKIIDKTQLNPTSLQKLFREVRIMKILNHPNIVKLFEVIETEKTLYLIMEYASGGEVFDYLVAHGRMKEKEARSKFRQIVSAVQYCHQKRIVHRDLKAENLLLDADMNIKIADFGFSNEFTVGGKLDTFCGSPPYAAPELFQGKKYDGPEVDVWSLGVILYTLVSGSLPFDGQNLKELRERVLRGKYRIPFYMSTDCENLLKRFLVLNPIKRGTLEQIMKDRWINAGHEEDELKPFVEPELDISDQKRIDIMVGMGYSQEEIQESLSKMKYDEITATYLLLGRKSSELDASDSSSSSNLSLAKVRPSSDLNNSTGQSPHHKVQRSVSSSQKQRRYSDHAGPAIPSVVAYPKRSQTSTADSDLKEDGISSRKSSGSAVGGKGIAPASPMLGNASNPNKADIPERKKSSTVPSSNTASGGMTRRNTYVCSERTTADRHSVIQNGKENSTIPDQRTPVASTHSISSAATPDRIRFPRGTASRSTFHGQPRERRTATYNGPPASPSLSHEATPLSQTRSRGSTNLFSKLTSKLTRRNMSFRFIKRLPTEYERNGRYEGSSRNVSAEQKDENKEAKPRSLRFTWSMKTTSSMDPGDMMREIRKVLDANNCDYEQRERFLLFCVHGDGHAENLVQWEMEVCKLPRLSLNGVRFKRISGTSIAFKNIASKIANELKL
Test: Displacement of tracer K9 from NLuc fused MARK3 (unknown origin) expressed in HEK293 cells by NanoBRET assay
In this section, each of the compounds is paired with its reported IC50.

Cc1nn(CC(F)(F)F)cc1Nc1nccc(NCCc2cnc[nH]2)n1	> 10 µM
NS(=O)(=O)c1ccc(CNc2nc(Nc3cccc(CN4CCOCC4)c3)ncc2Br)cc1	> 10 µM
NS(=O)(=O)c1ccc(CNc2ccnc(Nc3cccc(CN4CCOCC4)c3)n2)cc1	> 10 µM
O=C(NCCCNc1ccnc(Nc2cccc(NC(=O)N3CCCC3)c2)n1)C1CCC1	> 10 µM
Brc1cnc(Nc2cccc(CN3CCOCC3)c2)nc1NCCc1c[nH]cn1	0.872 µM
O=C(NCCCNc1nc(Nc2cccc(NC(=O)N3CCCC3)c2)ncc1C1CC1)C1CCC1	2 µM
Cc1nn(CC(F)(F)F)cc1Nc1nccc(NCCCNC(=O)C2CCC2)n1	> 10 µM
O=C(Nc1cccc(Nc2ncc(Br)c(NCCc3c[nH]cn3)n2)c1)N1CCCC1	3.33 µM

May I ask what IC50 has been recorded for c1cc(CN2CCOCC2)cc(Nc2nccc(NCCc3cnc[nH]3)n2)c1 ?
> 10 µM

// returns reported IC50 for input O=C(NCCCNc1nc(Nc2cccc(NC(=O)N3CCCC3)c2)ncc1Br)C1CCC1
0.137 µM

What IC50 value was documented for this compound, NS(=O)(=O)c1ccc(CNc2nc(Nc3cccc(CN4CCOCC4)c3)ncc2C2CC2)cc1 ?
> 10 µM

Fill in the blank: the reported IC50 of Cc1nn(CC(F)(F)F)cc1Nc1nccc(NCc2ccc(S(N)(=O)=O)cc2)n1 is ____.
> 10 µM

Dear colleague, I am looking for the recorded IC50 of the following compound: Cc1nn(CC(F)(F)F)cc1Nc1ncc(Br)c(NCc2ccc(S(N)(=O)=O)cc2)n1
> 10 µM

---

Molecular target: Activin receptor type-1 (Homo sapiens)
Sequence (Q04771 whole entry): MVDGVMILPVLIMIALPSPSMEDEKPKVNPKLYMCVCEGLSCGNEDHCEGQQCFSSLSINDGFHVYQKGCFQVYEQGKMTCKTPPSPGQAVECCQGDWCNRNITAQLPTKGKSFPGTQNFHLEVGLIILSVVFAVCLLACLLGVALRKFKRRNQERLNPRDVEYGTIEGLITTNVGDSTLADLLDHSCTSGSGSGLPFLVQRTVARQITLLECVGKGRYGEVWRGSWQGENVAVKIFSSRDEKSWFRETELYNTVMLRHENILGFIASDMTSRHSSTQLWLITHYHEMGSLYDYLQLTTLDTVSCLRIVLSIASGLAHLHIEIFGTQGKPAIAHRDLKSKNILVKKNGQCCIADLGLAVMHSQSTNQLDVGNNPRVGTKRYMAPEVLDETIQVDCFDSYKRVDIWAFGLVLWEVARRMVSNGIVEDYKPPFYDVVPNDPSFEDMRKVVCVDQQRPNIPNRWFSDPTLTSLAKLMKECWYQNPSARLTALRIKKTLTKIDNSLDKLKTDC
observable: IC50 (nM)
Report the figure in nM without appending any unit label.

What does the record list as IC50 for c1cc(CN2CCOCC2)cc(Nc2nccc(NCCc3cnc[nH]3)n2)c1 ?
537

---

// reported IC50 per item
Molecular target: Non-receptor tyrosine-protein kinase TYK2 (Homo sapiens)
Sequence (P29597 whole entry): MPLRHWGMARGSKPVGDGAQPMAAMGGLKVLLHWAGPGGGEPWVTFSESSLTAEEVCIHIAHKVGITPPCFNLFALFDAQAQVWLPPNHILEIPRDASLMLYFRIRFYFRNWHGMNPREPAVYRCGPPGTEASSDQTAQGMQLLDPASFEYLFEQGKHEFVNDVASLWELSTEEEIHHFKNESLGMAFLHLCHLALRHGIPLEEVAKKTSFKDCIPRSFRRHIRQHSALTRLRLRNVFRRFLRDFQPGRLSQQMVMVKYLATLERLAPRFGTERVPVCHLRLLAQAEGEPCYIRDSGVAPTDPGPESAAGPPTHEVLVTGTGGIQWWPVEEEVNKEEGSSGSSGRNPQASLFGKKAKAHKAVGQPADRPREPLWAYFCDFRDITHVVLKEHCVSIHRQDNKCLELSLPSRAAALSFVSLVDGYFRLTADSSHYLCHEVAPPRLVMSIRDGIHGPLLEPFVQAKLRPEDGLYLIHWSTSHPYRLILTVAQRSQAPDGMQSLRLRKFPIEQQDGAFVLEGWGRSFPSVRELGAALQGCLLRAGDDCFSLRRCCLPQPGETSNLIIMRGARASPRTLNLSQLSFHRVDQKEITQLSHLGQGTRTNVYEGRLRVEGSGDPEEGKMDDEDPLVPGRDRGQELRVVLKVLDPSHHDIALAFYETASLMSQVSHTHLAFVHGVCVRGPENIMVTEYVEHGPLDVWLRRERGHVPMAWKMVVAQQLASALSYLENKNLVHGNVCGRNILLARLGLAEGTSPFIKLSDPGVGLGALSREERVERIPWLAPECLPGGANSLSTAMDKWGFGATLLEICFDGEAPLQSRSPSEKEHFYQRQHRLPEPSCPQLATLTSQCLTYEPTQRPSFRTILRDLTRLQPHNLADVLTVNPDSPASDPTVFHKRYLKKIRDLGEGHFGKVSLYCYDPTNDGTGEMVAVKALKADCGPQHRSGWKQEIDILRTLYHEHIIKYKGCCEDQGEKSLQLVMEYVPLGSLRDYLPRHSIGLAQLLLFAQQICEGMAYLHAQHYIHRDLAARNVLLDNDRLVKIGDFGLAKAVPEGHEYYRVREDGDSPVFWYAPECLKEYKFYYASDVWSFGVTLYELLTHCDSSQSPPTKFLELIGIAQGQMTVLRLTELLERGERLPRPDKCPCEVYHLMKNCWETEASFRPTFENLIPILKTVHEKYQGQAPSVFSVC
Assay: Inhibition of human TYK2 (875 to end residues) using GGMEDIYFEFMGGKKK as substrate measured after 40 mins in presence of [gamma33P]ATP by radiometric scintillation counting method
Form entry: value (nM) — number only.

NS(=O)(=O)c1ccc(CNc2ccnc(Nc3cccc(CN4CCOCC4)c3)n2)cc1	276
NS(=O)(=O)c1ccc(CNc2ccnc(Nc3cccc(NC(=O)N4CCCC4)c3)n2)cc1	33

Field: next molecule
Value lookup for IC50; key = O=C(NCCCNc1ccnc(Nc2cccc(NC(=O)N3CCCC3)c2)n1)C1CCC1
720

---

Measured pIC50 accompanies every entry in the list below.
Target: MAP/microtubule affinity-regulating kinase 4 (Homo sapiens, UniProt Q96L34)
Sequence (Q96L34 whole entry, the tested form may be a part): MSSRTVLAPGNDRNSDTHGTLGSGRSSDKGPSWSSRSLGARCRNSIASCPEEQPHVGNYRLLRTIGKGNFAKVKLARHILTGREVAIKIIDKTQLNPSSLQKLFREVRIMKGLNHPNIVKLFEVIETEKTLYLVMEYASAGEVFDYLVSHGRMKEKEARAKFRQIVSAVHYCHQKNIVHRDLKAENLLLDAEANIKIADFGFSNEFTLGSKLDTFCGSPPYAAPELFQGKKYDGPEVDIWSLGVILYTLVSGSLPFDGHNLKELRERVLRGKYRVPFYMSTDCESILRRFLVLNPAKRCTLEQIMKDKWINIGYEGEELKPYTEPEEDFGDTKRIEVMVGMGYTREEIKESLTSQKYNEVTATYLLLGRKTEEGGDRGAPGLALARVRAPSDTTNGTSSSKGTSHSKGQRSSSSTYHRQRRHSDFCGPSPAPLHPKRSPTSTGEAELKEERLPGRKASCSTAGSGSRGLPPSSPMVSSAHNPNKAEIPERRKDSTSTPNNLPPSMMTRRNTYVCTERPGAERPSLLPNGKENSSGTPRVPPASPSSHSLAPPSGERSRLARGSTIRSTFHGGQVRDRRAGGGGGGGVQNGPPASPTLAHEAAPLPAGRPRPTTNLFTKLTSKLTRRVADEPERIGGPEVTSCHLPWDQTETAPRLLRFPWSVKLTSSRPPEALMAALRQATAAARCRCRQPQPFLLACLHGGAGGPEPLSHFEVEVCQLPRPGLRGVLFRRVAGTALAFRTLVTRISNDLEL
Assay: Displacement of tracer K5 from NLuc fused MARK4 (unknown origin) expressed in HEK293 cells by NanoBRET assay
Please treat pIC50 as minus the base-10 logarithm of the molar concentration.

O=C(Nc1cccc(Nc2ncc(Br)c(NCCc3c[nH]cn3)n2)c1)N1CCCC1	6.47

Can you share its pIC50? I mean this compound: O=C(NCCCNc1nc(Nc2cccc(NC(=O)N3CCCC3)c2)ncc1Br)C1CCC1
7.14
